target: UniProtKB Q9GZQ6; experiment: Agonist activity at NPFF1R (unknown origin) expressed in HEK293-A cells assessed as inhibition of forskolin-induced cAMP accumulation by measuring maximal efficacy preincubated for 30 mins in presence of 3-isobutyl-1-methylxanthine followed by forskolin and compound addition by competitive PKA binding assay relative to control; assay type: functional, cell-based; conditions: filed as agonist
Bridge positions count the residues as written; N and C are the ends. Square brackets hold non-standard residues; d marks the D form. Peptide text beside a SMILES is read from it. NMeF = CN[C@@H](Cc1ccccc1)C(=O)O; dOrn = NCCC[C@@H](N)C(=O)O

{"columns": ["compound", "Emax [%]"],
 "data": [
  ["CN1C(=O)CNC(=O)[C@H](NC(=O)[C@@H](N)Cc2ccc(O)cc2)CCCNC(=O)C[C@@H](C(=O)N2CCC[C@H]2C(=O)N[C@@H](CCC(N)=O)C(=O)N[C@@H](CCCNC(=N)N)C(=O)N[C@@H](Cc2ccccc2)C(N)=O)NC(=O)[C@@H]1Cc1ccccc1 (H-Y[dOrn]G[NMeF]DPQRF-NH2; lactam 2-5)", 72.4],
  ["CN1C(=O)CNC(=O)[C@@H](NC(=O)[C@@H](N)Cc2ccc(O)cc2)CCCCNC(=O)C[C@H](C(=O)N2CCC[C@H]2C(=O)N[C@@H](CCC(N)=O)C(=O)N[C@@H](CCCNC(=N)N)C(=O)N[C@@H](Cc2ccccc2)C(N)=O)NC(=O)[C@@H]1Cc1ccccc1 (H-YKG[NMeF][dD]PQRF-NH2; lactam 2-5)", 76.2],
  ["CN1C(=O)CNC(=O)[C@@H](NC(=O)[C@@H](N)Cc2ccc(O)cc2)CCCCNC(=O)C[C@@H](C(=O)N2CCC[C@H]2C(=O)N[C@@H](CCC(N)=O)C(=O)N[C@@H](CCCNC(=N)N)C(=O)N[C@@H](Cc2ccccc2)C(N)=O)NC(=O)[C@@H]1Cc1ccccc1 (H-YKG[NMeF]DPQRF-NH2; lactam 2-5)", 80.6]
]}

----------
target: Mu-type opioid receptor (Homo sapiens, UniProt P35372)
Sequence (P35372 whole entry): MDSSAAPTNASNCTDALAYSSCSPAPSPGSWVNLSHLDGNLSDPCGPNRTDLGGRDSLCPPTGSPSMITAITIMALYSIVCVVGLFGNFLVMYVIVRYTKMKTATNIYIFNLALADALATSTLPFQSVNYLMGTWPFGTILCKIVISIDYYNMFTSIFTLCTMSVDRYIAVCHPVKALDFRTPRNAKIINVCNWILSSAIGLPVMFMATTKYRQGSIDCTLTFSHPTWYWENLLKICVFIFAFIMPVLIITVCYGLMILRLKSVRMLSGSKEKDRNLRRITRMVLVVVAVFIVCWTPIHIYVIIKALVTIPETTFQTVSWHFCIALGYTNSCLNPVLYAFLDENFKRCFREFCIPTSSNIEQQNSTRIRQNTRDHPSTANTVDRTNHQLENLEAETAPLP
Bridge positions count the residues as written; N and C are the ends. Square brackets hold non-standard residues; d marks the D form. Peptide text beside a SMILES is read from it. NMeF = CN[C@@H](Cc1ccccc1)C(=O)O; dOrn = NCCC[C@@H](N)C(=O)O; dDap = NC[C@@H](N)C(=O)O
In this section, each of the compounds is paired with its reported EC50.
attributeMeasured: EC50 (nM)

{"columns": ["compound", "attributeMeasured", "recordedResult"],
 "data": [
  ["CN1C(=O)CNC(=O)[C@H](NC(=O)[C@@H](N)Cc2ccc(O)cc2)CNC(=O)C[C@@H](C(=O)N2CCC[C@H]2C(=O)N[C@@H](CCC(N)=O)C(=O)N[C@@H](CCCNC(=N)N)C(=O)N[C@@H](Cc2ccccc2)C(N)=O)NC(=O)[C@@H]1Cc1ccccc1 (H-Y[dDap]G[NMeF]DPQRF-NH2; lactam 2-5)", "EC50", 238],
  ["CN1C(=O)CNC(=O)[C@H](NC(=O)[C@@H](N)Cc2ccc(O)cc2)CCCNC(=O)C[C@@H](C(=O)N2CCC[C@H]2C(=O)N[C@@H](CCC(N)=O)C(=O)N[C@@H](CCCNC(=N)N)C(=O)N[C@@H](Cc2ccccc2)C(N)=O)NC(=O)[C@@H]1Cc1ccccc1 (H-Y[dOrn]G[NMeF]DPQRF-NH2; lactam 2-5)", "EC50", 168],
  ["CN1C(=O)CNC(=O)[C@@H](NC(=O)[C@@H](N)Cc2ccc(O)cc2)CCCCNC(=O)C[C@@H](C(=O)N2CCC[C@H]2C(=O)N[C@@H](CCC(N)=O)C(=O)N[C@@H](CCCNC(=N)N)C(=O)N[C@@H](Cc2ccccc2)C(N)=O)NC(=O)[C@@H]1Cc1ccccc1 (H-YKG[NMeF]DPQRF-NH2; lactam 2-5)", "EC50", 72.6]
]}

----------
Attribute: EC50
molecular target: Neuropeptide FF receptor 2 (Homo sapiens, UniProt Q9Y5X5); experiment: Agonist activity at NPFF2R (unknown origin) expressed in HEK293-A cells assessed as inhibition of forskolin-induced cAMP accumulation preincubated for 30 mins in presence of 3-isobutyl-1-methylxanthine followed by forskolin and compound addition by competitive PKA binding assay; type: functional, cell-based; conditions: read-out: EC50
Sequence (Q9Y5X5 whole entry): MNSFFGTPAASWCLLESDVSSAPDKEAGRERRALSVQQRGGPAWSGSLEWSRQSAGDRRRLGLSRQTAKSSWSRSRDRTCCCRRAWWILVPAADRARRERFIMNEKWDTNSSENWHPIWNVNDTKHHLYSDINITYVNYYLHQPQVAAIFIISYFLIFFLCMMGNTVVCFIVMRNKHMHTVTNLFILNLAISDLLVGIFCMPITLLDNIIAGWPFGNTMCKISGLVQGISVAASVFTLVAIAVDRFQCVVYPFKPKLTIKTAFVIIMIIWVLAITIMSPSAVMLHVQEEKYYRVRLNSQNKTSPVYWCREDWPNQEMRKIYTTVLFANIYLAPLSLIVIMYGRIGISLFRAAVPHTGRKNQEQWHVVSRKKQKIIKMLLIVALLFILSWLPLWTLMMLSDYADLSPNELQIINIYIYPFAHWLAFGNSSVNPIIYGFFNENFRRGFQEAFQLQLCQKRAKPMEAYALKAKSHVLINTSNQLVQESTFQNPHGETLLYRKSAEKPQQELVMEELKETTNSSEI
Bridge positions count the residues as written; N and C are the ends. Square brackets hold non-standard residues; d marks the D form. Peptide text beside a SMILES is read from it. NMeF = CN[C@@H](Cc1ccccc1)C(=O)O; dOrn = NCCC[C@@H](N)C(=O)O

{"columns": ["compound", "resultUnits", "EC50"],
 "data": [
  ["CN1C(=O)CNC(=O)[C@H](NC(=O)[C@@H](N)Cc2ccc(O)cc2)CC(=O)NCCCC[C@@H](C(=O)N2CCC[C@H]2C(=O)N[C@@H](CCC(N)=O)C(=O)N[C@@H](CCCNC(=N)N)C(=O)N[C@@H](Cc2ccccc2)C(N)=O)NC(=O)[C@@H]1Cc1ccccc1 (H-Y[dD]G[NMeF]KPQRF-NH2; lactam 2-5)", "nM", 303],
  ["CN1C(=O)CNC(=O)[C@H](NC(=O)[C@@H](N)Cc2ccc(O)cc2)CCCNC(=O)C[C@@H](C(=O)N2CCC[C@H]2C(=O)N[C@@H](CCC(N)=O)C(=O)N[C@@H](CCCNC(=N)N)C(=O)N[C@@H](Cc2ccccc2)C(N)=O)NC(=O)[C@@H]1Cc1ccccc1 (H-Y[dOrn]G[NMeF]DPQRF-NH2; lactam 2-5)", "nM", 133],
  ["CN1C(=O)CNC(=O)[C@@H](NC(=O)[C@@H](N)Cc2ccc(O)cc2)CCCCNC(=O)C[C@H](C(=O)N2CCC[C@H]2C(=O)N[C@@H](CCC(N)=O)C(=O)N[C@@H](CCCNC(=N)N)C(=O)N[C@@H](Cc2ccccc2)C(N)=O)NC(=O)[C@@H]1Cc1ccccc1 (H-YKG[NMeF][dD]PQRF-NH2; lactam 2-5)", "nM", 81.5]
]}

----------
Recorded measurements of pEC50, one per entry
molecular target: Neuropeptide FF receptor 1 (Homo sapiens); assay: Agonist activity at NPFF1R (unknown origin) expressed in HEK293-A cells assessed as inhibition of forskolin-induced cAMP accumulation preincubated for 30 mins in presence of 3-isobutyl-1-methylxanthine followed by forskolin and compound addition by competitive PKA binding assay
Sequence (Q9GZQ6 whole entry): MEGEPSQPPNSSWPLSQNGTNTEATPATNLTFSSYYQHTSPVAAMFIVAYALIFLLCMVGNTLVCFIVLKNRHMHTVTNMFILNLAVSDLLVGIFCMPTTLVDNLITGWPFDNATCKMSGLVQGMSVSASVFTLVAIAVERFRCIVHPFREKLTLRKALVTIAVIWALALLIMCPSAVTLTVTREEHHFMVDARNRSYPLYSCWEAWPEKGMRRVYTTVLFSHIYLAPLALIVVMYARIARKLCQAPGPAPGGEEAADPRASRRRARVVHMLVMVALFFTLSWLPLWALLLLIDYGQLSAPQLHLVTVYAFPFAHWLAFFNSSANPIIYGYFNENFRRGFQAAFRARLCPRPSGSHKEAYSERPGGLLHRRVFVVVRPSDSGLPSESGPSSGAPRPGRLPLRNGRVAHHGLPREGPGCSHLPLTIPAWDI
pEC50: −log10 of the molar value. Bridge positions count the residues as written; N and C are the ends. Square brackets hold non-standard residues; d marks the D form. Peptide text beside a SMILES is read from it. NMeF = CN[C@@H](Cc1ccccc1)C(=O)O; dOrn = NCCC[C@@H](N)C(=O)O

{"columns": ["compound", "systemUnderTest", "pEC50"],
 "data": [
  ["CN1C(=O)CNC(=O)[C@H](NC(=O)[C@@H](N)Cc2ccc(O)cc2)CCCCNC(=O)C[C@H](C(=O)N2CCC[C@H]2C(=O)N[C@@H](CCC(N)=O)C(=O)N[C@@H](CCCNC(=N)N)C(=O)N[C@@H](Cc2ccccc2)C(N)=O)NC(=O)[C@@H]1Cc1ccccc1 (H-Y[dK]G[NMeF][dD]PQRF-NH2; lactam 2-5)", "Neuropeptide FF receptor 1 (Homo sapiens)", 6.28],
  ["CN1C(=O)CNC(=O)[C@H](NC(=O)[C@@H](N)Cc2ccc(O)cc2)CCCNC(=O)C[C@@H](C(=O)N2CCC[C@H]2C(=O)N[C@@H](CCC(N)=O)C(=O)N[C@@H](CCCNC(=N)N)C(=O)N[C@@H](Cc2ccccc2)C(N)=O)NC(=O)[C@@H]1Cc1ccccc1 (H-Y[dOrn]G[NMeF]DPQRF-NH2; lactam 2-5)", "Neuropeptide FF receptor 1 (Homo sapiens)", 6.36],
  ["CN1C(=O)CNC(=O)[C@@H](NC(=O)[C@@H](N)Cc2ccc(O)cc2)CCCCNC(=O)C[C@@H](C(=O)N2CCC[C@H]2C(=O)N[C@@H](CCC(N)=O)C(=O)N[C@@H](CCCNC(=N)N)C(=O)N[C@@H](Cc2ccccc2)C(N)=O)NC(=O)[C@@H]1Cc1ccccc1 (H-YKG[NMeF]DPQRF-NH2; lactam 2-5)", "Neuropeptide FF receptor 1 (Homo sapiens)", 7.54]
]}

----------
experiment: Metabolic stability in mouse plasma assessed as degradation half life at 0.01 M measured up to 360 mins; format: ADME, cell-free
Bridge positions count the residues as written; N and C are the ends. Square brackets hold non-standard residues; d marks the D form. Peptide text beside a SMILES is read from it. NMeF = CN[C@@H](Cc1ccccc1)C(=O)O; dDap = NC[C@@H](N)C(=O)O
Let's look at some compounds and their measured half-life at 10000 µM.

{"columns": ["compound", "resultUnits", "half-life at 10000 µM"],
 "data": [
  ["CN1C(=O)CNC(=O)[C@H](NC(=O)[C@@H](N)Cc2ccc(O)cc2)CCCCNC(=O)C[C@@H](C(=O)N2CCC[C@H]2C(=O)N[C@@H](CCC(N)=O)C(=O)N[C@@H](CCCNC(=N)N)C(=O)N[C@@H](Cc2ccccc2)C(N)=O)NC(=O)[C@@H]1Cc1ccccc1 (H-Y[dK]G[NMeF]DPQRF-NH2; lactam 2-5)", "min", 45.4],
  ["CN1C(=O)CNC(=O)[C@H](NC(=O)[C@@H](N)Cc2ccc(O)cc2)CNC(=O)C[C@@H](C(=O)N2CCC[C@H]2C(=O)N[C@@H](CCC(N)=O)C(=O)N[C@@H](CCCNC(=N)N)C(=O)N[C@@H](Cc2ccccc2)C(N)=O)NC(=O)[C@@H]1Cc1ccccc1 (H-Y[dDap]G[NMeF]DPQRF-NH2; lactam 2-5)", "min", 65.5]
]}

Source of measurements: ChEMBL document CHEMBL5034023
